target: sTAAR365 W7.40F (Petromyzon marinus, UniProt A0A678XMK4, W296F); test: cell-based
Sequence (A0A678XMK4 whole entry W296F): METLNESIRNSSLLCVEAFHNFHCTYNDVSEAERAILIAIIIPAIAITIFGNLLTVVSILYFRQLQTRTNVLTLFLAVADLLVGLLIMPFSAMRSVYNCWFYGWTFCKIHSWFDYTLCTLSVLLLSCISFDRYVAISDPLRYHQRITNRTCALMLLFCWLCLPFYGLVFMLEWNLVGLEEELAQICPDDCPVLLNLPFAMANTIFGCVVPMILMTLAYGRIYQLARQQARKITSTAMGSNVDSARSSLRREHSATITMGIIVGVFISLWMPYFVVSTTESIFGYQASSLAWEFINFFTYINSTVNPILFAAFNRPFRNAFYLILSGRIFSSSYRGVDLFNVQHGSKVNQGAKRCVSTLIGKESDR
assay_readout: pEC50
Answer as the number alone; pEC50 is minus log10 of concentration in mol/L.

Inquiry: Which measured pEC50 value corresponds to NCCCCCN ?
Reply text: 6.65

====

Recorded pEC50 values for a group of compounds are listed next.
biological target: mTAAR9 W7.40F (Mus musculus, UniProt Q5QD04, W298F); assay: CRE-luciferase reporter assay, mTAAR9 mutant in Hana3A; settings: read-out: EC50 (mean ± S.D., n = 3)
Sequence (Q5QD04 whole entry W298F): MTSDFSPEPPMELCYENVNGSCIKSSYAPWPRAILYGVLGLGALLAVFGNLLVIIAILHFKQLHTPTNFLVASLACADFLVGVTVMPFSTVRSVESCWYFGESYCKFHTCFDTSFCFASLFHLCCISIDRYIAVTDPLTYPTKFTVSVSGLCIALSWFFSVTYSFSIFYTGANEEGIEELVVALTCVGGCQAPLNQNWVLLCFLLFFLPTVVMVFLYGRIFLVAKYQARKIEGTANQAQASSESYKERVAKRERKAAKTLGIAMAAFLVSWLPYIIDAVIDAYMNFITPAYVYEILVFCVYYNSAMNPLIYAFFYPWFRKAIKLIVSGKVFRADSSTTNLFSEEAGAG
Answer as the number alone; pEC50 is minus log10 of concentration in mol/L.

// worked examples, pEC50 included
>  <cpd_smiles>
NCCCCCN

>  <assay_value>
4.08

$$$$
>  <cpd_smiles>
CCN(CC)CC

>  <assay_value>
4.44

$$$$

Please look at the following compound next.
Inquiry: Which pEC50 value belongs to NCCCCNCCCN ?
Reply text: 5.05

====

target: sTAAR365 E7.36A (Petromyzon marinus, UniProt A0A678XMK4, E292A); assay: cell-based
Item-by-item account of pEC50
pEC50 field: float, defined as -log10 of concentration (mol/L).

>  <compound>
NCCCCN [putrescine]

>  <pEC50>
3.38

$$$$

Inquiry: What does the data say about its pEC50? Entry: NCCCCCN [cadaverine]
Reply text: 7.30

====

molecular target: sTAAR365 Y7.43S (Petromyzon marinus, UniProt A0A678XMK4, Y299S); assay: cell-based
Sequence (A0A678XMK4 whole entry Y299S): as the sequence (A0A678XMK4 whole entry W296F) above, with F296W, Y299S counted along it
assay_readout: EC50 (µM)
Quick note: give the figure in µM, leave out the unit.

Inquiry: What measured EC50 goes with NCCCCCN ?
Reply text: 124

====

molecular target: WT sTAAR365 (Petromyzon marinus, UniProt A0A678XMK4); assay: cAMP TR-FRET assay, wild-type sTAAR365 in HEK293T
Sequence (A0A678XMK4 whole entry): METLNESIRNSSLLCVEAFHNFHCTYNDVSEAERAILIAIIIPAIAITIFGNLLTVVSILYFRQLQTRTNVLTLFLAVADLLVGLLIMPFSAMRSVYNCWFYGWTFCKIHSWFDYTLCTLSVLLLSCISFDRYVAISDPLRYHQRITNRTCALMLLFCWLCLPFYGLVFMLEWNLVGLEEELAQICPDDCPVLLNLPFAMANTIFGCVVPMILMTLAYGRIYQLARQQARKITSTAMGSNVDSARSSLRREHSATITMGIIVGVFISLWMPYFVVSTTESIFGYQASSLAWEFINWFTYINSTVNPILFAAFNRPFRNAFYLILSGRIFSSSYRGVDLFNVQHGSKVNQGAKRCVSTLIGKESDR
assay_readout: EC50 (µM)
Output spec: scalar in µM, unitless text.

>  <compound>
NCCCCCN [cadaverine]

>  <unit_symbol>
µM

>  <assay_value>
0.004

$$$$
>  <compound>
NCCCNCCCCNCCCN [spermine]

>  <unit_symbol>
µM

>  <assay_value>
28

$$$$

Now, please, on to the next compound.
Inquiry: Query EC50 on WT sTAAR365 (Petromyzon marinus, UniProt A0A678XMK4) for NCCCCN [putrescine]
Reply text: 56

====

target: sTAAR365 Y6.51L (Petromyzon marinus, UniProt A0A678XMK4, Y272L); assay: cell-based
Sequence (A0A678XMK4 whole entry Y272L): as the sequence (A0A678XMK4 whole entry W296F) above, with Y272L, F296W counted along it
pEC50: −log10 of the molar value.
# key: entry, value: pEC50

>  <compound>
NCCCNCCCCNCCCN [spermine]

>  <pEC50>
< 3.30

$$$$

Now let's try a different one.
Inquiry: For the compound shown here, NCCCCCN [cadaverine] , give the reported pEC50.
Reply text: < 4.00

====

target: Rat TAAR9 (Rattus norvegicus, UniProt Q923Y6); construct: expressed in transfected cells; host or cells: Hana3A (HEK293-derived); experiment: CRE-luciferase reporter assay in Hana3A; format: cell-based; details: rat TAAR9, ligand 1 mM, Fig. 1B
Sequence (Q923Y6 whole entry): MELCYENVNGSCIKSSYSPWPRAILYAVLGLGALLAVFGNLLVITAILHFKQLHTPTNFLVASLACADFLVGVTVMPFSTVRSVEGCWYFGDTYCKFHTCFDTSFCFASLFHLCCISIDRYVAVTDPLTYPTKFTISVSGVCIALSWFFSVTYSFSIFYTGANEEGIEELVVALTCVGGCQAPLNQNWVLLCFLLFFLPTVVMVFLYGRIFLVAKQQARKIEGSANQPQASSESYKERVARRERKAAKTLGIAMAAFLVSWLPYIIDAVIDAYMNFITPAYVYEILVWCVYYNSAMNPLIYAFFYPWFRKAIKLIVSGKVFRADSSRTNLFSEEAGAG

>  <molecule>
NCCCNCCCCNCCCN [spermine]

>  <reporter activity (activation of TAAR9)>
maximum responses

$$$$
>  <molecule>
NCCCCCN [cadaverine]

>  <reporter activity (activation of TAAR9)>
maximum responses

$$$$
>  <molecule>
NCCCCNCCCN [spermidine]

>  <reporter activity (activation of TAAR9)>
maximum responses

$$$$
